- tested_target: human TPC2 L11A/L12A (TPC2^PM) (Homo sapiens, UniProt Q8NHX9, L11A/L12A)
- Construct: FLAG (C); V5 (C)
- Sequence (Q8NHX9 whole entry L11A/L12A): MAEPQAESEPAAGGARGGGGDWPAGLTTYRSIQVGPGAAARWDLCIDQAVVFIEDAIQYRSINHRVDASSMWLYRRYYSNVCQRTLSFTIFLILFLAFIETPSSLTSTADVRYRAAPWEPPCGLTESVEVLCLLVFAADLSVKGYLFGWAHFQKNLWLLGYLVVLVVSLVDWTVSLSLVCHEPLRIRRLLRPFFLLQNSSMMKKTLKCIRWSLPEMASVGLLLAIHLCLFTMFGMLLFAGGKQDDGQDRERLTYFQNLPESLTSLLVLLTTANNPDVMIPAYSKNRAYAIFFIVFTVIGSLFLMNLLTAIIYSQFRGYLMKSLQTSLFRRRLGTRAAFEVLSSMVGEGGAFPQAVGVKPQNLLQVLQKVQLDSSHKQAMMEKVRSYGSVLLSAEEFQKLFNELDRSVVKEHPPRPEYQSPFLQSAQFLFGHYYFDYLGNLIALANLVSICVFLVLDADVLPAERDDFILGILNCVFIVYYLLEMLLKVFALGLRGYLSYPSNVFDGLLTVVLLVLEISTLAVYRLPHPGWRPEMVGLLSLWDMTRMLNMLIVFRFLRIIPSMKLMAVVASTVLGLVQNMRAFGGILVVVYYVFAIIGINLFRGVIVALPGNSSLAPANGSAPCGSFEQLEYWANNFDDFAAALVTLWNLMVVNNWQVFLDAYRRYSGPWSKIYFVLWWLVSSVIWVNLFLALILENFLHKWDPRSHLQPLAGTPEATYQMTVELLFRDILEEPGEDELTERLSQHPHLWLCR
- experimental_details: Inside-out patch-clamp of PI(3,5)P2-induced TPC2^PM Na+ currents (WT pore)
- measurement_conditions: read-out: IC50 for inhibition of PI(3,5)P2-induced human TPC2 channel Na+ currents
pIC50: −log10 of the molar value.

{"columns": ["record_smiles", "pIC50"],
 "data": [
  ["Oc1cccc(-c2nc(N3CCOCC3)c3oc4ncccc4c3n2)c1", 6.19]
]}

* * *

- tested_target: human TPC2^PM Y312A mutant (Homo sapiens, UniProt Q8NHX9, L11A/L12A/Y312A)
- Construct: FLAG (C); V5 (C)
- Sequence (Q8NHX9 whole entry L11A/L12A/Y312A): as the sequence (Q8NHX9 whole entry L11A/L12A) above, with Y312A counted along it
- experimental_details: Inside-out patch-clamp, PI(3,5)P2-activated TPC2^PM Y312A

{"columns": ["record_smiles", "IC50 [µM]"],
 "data": [
  ["Oc1cccc(-c2nc(N3CCOCC3)c3oc4ncccc4c3n2)c1", 13.9]
]}
